Listing of recorded IC50 at 24 h by entry.
Assay: Mammalian cytotoxicity assay (resazurin), COS-1 cells
Type: cell-based
Details: African green monkey, read-out: Cytotox. COS-1

# Compound, IC50 at 24 h
rows = [
    ("CN(C)[C@H]1C(O)=C(C(N)=O)C(=O)[C@@]2(O)C(O)=C3C(=O)c4c(O)ccc(-c5cnc6ccccc6c5)c4C[C@H]3C[C@@H]12", "> 15.9 µM"),
    ("CC(=O)NCCC(=O)c1ccc(O)c2c1C[C@H]1C[C@H]3[C@H](N(C)C)C(O)=C(C(N)=O)C(=O)[C@@]3(O)C(O)=C1C2=O", "> 160 µM"),
    ("CN(C)Cc1ccc(-c2ccc(O)c3c2C[C@H]2C[C@H]4[C@H](N(C)C)C(O)=C(C(N)=O)C(=O)[C@@]4(O)C(O)=C2C3=O)[nH]1", "> 148 µM"),
    ("CN(C)[C@@H]1C(O)=C(C(N)=O)C(=O)[C@@]2(O)C(O)=C3C(=O)c4c(O)ccc(-c5cccc(CCCO)c5)c4C[C@H]3C[C@@H]12", "15.1 µM"),
    ("CN(C)[C@@H]1C(O)=C(C(N)=O)C(=O)[C@@]2(O)C(O)=C3C(=O)c4c(O)ccc(-c5cccc(C(=O)NCc6ccco6)c5)c4C[C@H]3C[C@@H]12", "> 14.6 µM"),
    ("CN(C)[C@@H]1C(O)=C(C(N)=O)C(=O)[C@@]2(O)C(O)=C3C(=O)c4c(O)ccc(-c5ccc(CN6CCOCC6)o5)c4C[C@H]3C[C@@H]12", "27.1 µM"),
    ("COC(=O)C1CCN(Cc2ccc(O)c3c2C[C@H]2C[C@H]4[C@H](N(C)C)C(O)=C(C(N)=O)C(=O)[C@@]4(O)C(O)=C2C3=O)CC1", "> 140 µM"),
    ("CN(C)CCCCNC(=O)c1cccc(-c2ccc(O)c3c2C[C@H]2C[C@H]4[C@H](N(C)C)C(O)=C(C(N)=O)C(=O)[C@@]4(O)C(O)=C2C3=O)c1", "> 41.7 µM"),
    ("COCCNCc1ccc(-c2ccc(O)c3c2C[C@H]2C[C@H]4[C@H](N(C)C)C(O)=C(C(N)=O)C(=O)[C@@]4(O)C(O)=C2C3=O)cc1", "> 95.6 µM"),
    ("CN(C)[C@@H]1C(O)=C(C(N)=O)C(=O)[C@@]2(O)C(O)=C3C(=O)c4c(O)ccc(-c5cccc(C(=O)NCCO)c5)c4C[C@H]3C[C@@H]12", "> 14.7 µM"),
    ("CN(C)[C@@H]1C(O)=C(C(N)=O)C(=O)[C@@]2(O)C(O)=C3C(=O)c4c(O)ccc(-c5cccc(CCCN)c5)c4C[C@H]3C[C@@H]12", "> 20 µM"),
    ("CC(=O)NCCNC(=O)c1cccc(-c2ccc(O)c3c2C[C@H]2C[C@H]4[C@H](N(C)C)C(O)=C(C(N)=O)C(=O)[C@@]4(O)C(O)=C2C3=O)c1", "> 13 µM"),
    ("CCN(CC)CCNC(=O)c1cccc(-c2ccc(O)c3c2C[C@H]2C[C@H]4[C@@H](N(C)C)C(O)=C(C(N)=O)C(=O)[C@@]4(O)C(O)=C2C3=O)c1", "> 135 µM"),
    ("COC(C)CNCC(=O)c1ccc(O)c2c1C[C@H]1C[C@H]3[C@H](N(C)C)C(O)=C(C(N)=O)C(=O)[C@@]3(O)C(O)=C1C2=O (stereo partly shown)", "> 146 µM"),
    ("CN(C)[C@@H]1C(O)=C(C(N)=O)C(=O)[C@@]2(O)C(O)=C3C(=O)c4c(O)ccc(C(=O)CNCc5ccco5)c4C[C@H]3C[C@@H]12", "> 44.7 µM"),
    ("CC(=O)N1CCN(CC(=O)c2ccc(O)c3c2C[C@H]2C[C@H]4[C@H](N(C)C)C(O)=C(C(N)=O)C(=O)[C@@]4(O)C(O)=C2C3=O)CC1", "> 145 µM"),
    ("CN(C)[C@@H]1C(O)=C(C(N)=O)C(=O)[C@@]2(O)C(O)=C3C(=O)c4c(O)ccc(C(=O)CNc5cccnc5)c4C[C@H]3C[C@@H]12", "> 153 µM"),
    ("CN(C)CCCN(C)Cc1cccc(-c2ccc(O)c3c2C[C@H]2C[C@H]4[C@H](N(C)C)C(O)=C(C(N)=O)C(=O)[C@@]4(O)C(O)=C2C3=O)c1", "> 124 µM"),
    ("CN(C)CC(=O)Nc1cccc(-c2ccc(O)c3c2C[C@H]2C[C@H]4[C@H](N(C)C)C(O)=C(C(N)=O)C(=O)[C@@]4(O)C(O)=C2C3=O)c1", "> 12.8 µM"),
    ("CN1CCN(Cc2cccc(-c3ccc(O)c4c3C[C@H]3C[C@H]5[C@H](N(C)C)C(O)=C(C(N)=O)C(=O)[C@@]5(O)C(O)=C3C4=O)c2)CC1", "> 200 µM"),
    ("CN(C)CCN(C)C(=O)c1cccc(-c2ccc(O)c3c2C[C@H]2C[C@H]4[C@H](N(C)C)C(O)=C(C(N)=O)C(=O)[C@@]4(O)C(O)=C2C3=O)c1", "> 137 µM"),
    ("CN(C)c1cc(-c2ccc(CN3CCN(CCO)CC3)o2)c(O)c2c1C[C@H]1C[C@H]3[C@H](N(C)C)C(O)=C(C(N)=O)C(=O)[C@@]3(O)C(O)=C1C2=O", "> 111 µM"),
]

* * *

Test system: gram positive bacteria
Test: In vitro anti-bacterial activity assay (broth dilution MIC), gram positive bacteria
Type: cell-based, S. aureus
Settings: Staphylococcus aureus, 18 h, S. aureus MRSA5; read-out: Median MIC's G+ S. aureus MRSA5

# Molecule, MIC (µg/mL)
measured = [
    ("CN(C)CCC(=O)c1ccc(O)c2c1C[C@H]1C[C@H]3[C@H](N(C)C)C(O)=C(C(N)=O)C(=O)[C@@]3(O)C(O)=C1C2=O [AV]", 0.5),
    ("CCN(CC)CCCC(C)NC(=O)c1ccc(O)c2c1C[C@H]1C[C@H]3[C@H](N(C)C)C(O)=C(C(N)=O)C(=O)[C@@]3(O)C(O)=C1C2=O (stereo partly drawn) [AI]", 64),
    ("CN(C)[C@@H]1C(O)=C(C(N)=O)C(=O)[C@@]2(O)C(O)=C3C(=O)c4c(O)ccc(C(=O)CNc5cccnc5)c4C[C@H]3C[C@@H]12 [CB]", 64),
    ("CN(C)CC(=O)N1CC=C(c2ccc(O)c3c2C[C@H]2C[C@H]4[C@H](N(C)C)C(O)=C(C(N)=O)C(=O)[C@@]4(O)C(O)=C2C3=O)CC1 [AL]", 32),
    ("CN(C)[C@@H]1C(O)=C(C(N)=O)C(=O)[C@@]2(O)C(O)=C3C(=O)c4c(O)ccc(-c5cccc(C(=O)NCCN)c5)c4C[C@H]3C[C@@H]12 [N]", 64),
    ("CN(C)c1cc(-c2ccc(CN3CCN(CCO)CC3)o2)c(O)c2c1C[C@H]1C[C@H]3[C@H](N(C)C)C(O)=C(C(N)=O)C(=O)[C@@]3(O)C(O)=C1C2=O [BA]", 64),
]

* * *

Assay: in vitro
Type: cell-based
Conditions: Chinese hamster, Cytotox. CHO-K1
Listing of recorded IC50 at 24 h by entry.

# Input smiles, IC50 at 24 h
measured = [
    ("COCCN(C)CC(=O)c1ccc(O)c2c1C[C@H]1C[C@H]3[C@H](N(C)C)C(O)=C(C(N)=O)C(=O)[C@@]3(O)C(O)=C1C2=O", "> 154 µM"),
    ("CN(C)CCCNCc1cccc(-c2ccc(O)c3c2C[C@H]2C[C@H]4[C@H](N(C)C)C(O)=C(C(N)=O)C(=O)[C@@]4(O)C(O)=C2C3=O)c1", "> 137 µM"),
    ("CN(CCC#N)Cc1cccc(-c2ccc(O)c3c2C[C@H]2C[C@H]4[C@H](N(C)C)C(O)=C(C(N)=O)C(=O)[C@@]4(O)C(O)=C2C3=O)c1", "> 13.6 µM"),
    ("CN1CCN(C(=O)c2cccc(-c3ccc(O)c4c3C[C@H]3C[C@H]5[C@H](N(C)C)C(O)=C(C(N)=O)C(=O)[C@@]5(O)C(O)=C3C4=O)c2)CC1", "> 138 µM"),
    ("CN(C)CCCNC(=O)c1cccc(-c2ccc(O)c3c2C[C@H]2C[C@H]4[C@@H](N(C)C)C(O)=C(C(N)=O)C(=O)[C@@]4(O)C(O)=C2C3=O)c1", "> 123 µM"),
    ("CN(C)CCC(=O)c1ccc(O)c2c1C[C@H]1C[C@H]3[C@H](N(C)C)C(O)=C(C(N)=O)C(=O)[C@@]3(O)C(O)=C1C2=O", "> 153 µM"),
]

* * *

Assay: Mammalian cytotoxicity assay (resazurin), COS-1 cells
Type: cell-based
Details: African green monkey, read-out: Cytotox. COS-1
Observation type: IC50 at 24 h

# Input smiles, Observation type, Assay result
records = [
    ("COC(=O)c1ccc(-c2ccc(O)c3c2C[C@H]2C[C@H]4[C@H](N(C)C)C(O)=C(C(N)=O)C(=O)[C@@]4(O)C(O)=C2C3=O)cc1", "IC50 at 24 h", "4.8 µM"),
    ("COc1ccc(-c2ccc(O)c3c2C[C@H]2C[C@H]4[C@H](N(C)C)C(O)=C(C(N)=O)C(=O)[C@@]4(O)C(O)=C2C3=O)cc1CNCC(N)=O", "IC50 at 24 h", "> 10.8 µM"),
    ("CN1CCN(C(=O)c2cccc(-c3ccc(O)c4c3C[C@H]3C[C@H]5[C@H](N(C)C)C(O)=C(C(N)=O)C(=O)[C@@]5(O)C(O)=C3C4=O)c2)CC1", "IC50 at 24 h", "> 138 µM"),
    ("CN(C)CCc1ccc(O)c2c1C[C@H]1C[C@H]3[C@H](N(C)C)C(O)=C(C(N)=O)C(=O)[C@@]3(O)C(O)=C1C2=O", "IC50 at 24 h", "> 121 µM"),
    ("CN(C)CCNC(=O)c1ccc(-c2ccc(O)c3c2C[C@H]2C[C@H]4[C@H](N(C)C)C(O)=C(C(N)=O)C(=O)[C@@]4(O)C(O)=C2C3=O)cc1", "IC50 at 24 h", "> 43.5 µM"),
    ("CN(C)C(=O)c1cccc(-c2ccc(O)c3c2C[C@H]2C[C@H]4[C@H](N(C)C)C(O)=C(C(N)=O)C(=O)[C@@]4(O)C(O)=C2C3=O)c1", "IC50 at 24 h", "> 37.6 µM"),
]
